B1: Pre-mRNA-processing factor 40 homolog B, residues 274 to 332; numbered along this chain, Q6NWY9 (parent)
chain: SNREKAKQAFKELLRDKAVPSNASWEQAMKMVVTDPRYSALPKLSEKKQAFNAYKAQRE

- Variants of: B1
- Experiment: abundance fitness (aPCA) (normalised: wild type 0, dead -1); higher = more abundant; growth selection in yeast, the domain comes from the species named
- Condition: Homo sapiens
Classification field. Basis: abundance fitness. Definitions: lower range (below -0.4), middle range (-0.4 to below -0.07), upper range (-0.07 or more)

Challenge: Consider `L41R` . To which abundance fitness class does it belong?
Response given: lower range

Challenge: Consider `L44R` . To which abundance fitness class does it belong?
Response given: middle range

Challenge: Consider `K17Q` . To which abundance fitness class does it belong?
Response given: middle range

Challenge: Consider `S39N` . To which abundance fitness class does it belong?
Response given: upper range

Challenge: Consider `T34F` . To which abundance fitness class does it belong?
Response given: middle range

New cases:
Challenge: Consider `P36R` . To which abundance fitness class does it belong?
Response given: middle range

Challenge: Consider `S39C` . To which abundance fitness class does it belong?
Response given: middle range

Challenge: Consider `A53H` . To which abundance fitness class does it belong?
Response given: lower range

Challenge: Consider `E4C` . To which abundance fitness class does it belong?
Response given: lower range

Challenge: Consider `E46H` . To which abundance fitness class does it belong?
Response given: lower range

Challenge: Consider `L14N` . To which abundance fitness class does it belong?
Response given: middle range
